Data origin, for the record: patent US10597370B2

target: Endothelial lipase (EL) (Homo sapiens); construct: transformed by RAGE technology (Athersys) to overexpress endogenous EL; endogenous in cells; the conditioned medium served as the enzyme source; assay: Endothelial lipase (EL) enzymatic assay with fluorescent substrate A10070 in DMPG vesicles; settings: conditioned media from HT-1080 cells overexpressing endogenous EL; 20 min preincubation at 37° C.
Sequence (Q9Y5X9 21-500): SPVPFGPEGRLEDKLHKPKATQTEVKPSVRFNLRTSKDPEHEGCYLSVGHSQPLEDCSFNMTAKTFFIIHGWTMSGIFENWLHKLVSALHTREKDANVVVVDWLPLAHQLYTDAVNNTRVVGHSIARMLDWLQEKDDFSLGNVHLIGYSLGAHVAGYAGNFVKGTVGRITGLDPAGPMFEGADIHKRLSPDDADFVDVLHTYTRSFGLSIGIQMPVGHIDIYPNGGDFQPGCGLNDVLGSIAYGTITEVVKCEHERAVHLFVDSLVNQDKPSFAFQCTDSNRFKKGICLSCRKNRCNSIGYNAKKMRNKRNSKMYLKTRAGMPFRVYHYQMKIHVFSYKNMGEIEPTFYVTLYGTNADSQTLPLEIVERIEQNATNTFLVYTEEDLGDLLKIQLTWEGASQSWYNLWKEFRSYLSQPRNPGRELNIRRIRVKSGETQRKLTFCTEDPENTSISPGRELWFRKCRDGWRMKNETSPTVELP
pIC50: −log10 of the molar value.
RESULT_TYPE: pIC50

COMPOUND: N#CC(C(=O)NCC(=O)NC1CC1)c1nc2ccc(-c3ccc(NC(=O)OCc4ccccc4)cc3)cc2s1 (centres unmarked) [Example 15]
pIC50: 8.85

COMPOUND: CN1CCN(C(=O)c2ccc(-c3cnc4nc(C(C#N)C(=O)NCC(=O)NC5CC5)sc4c3)cc2)CC1 (centres unmarked) [Example 23]
pIC50: 7.48

COMPOUND: CN1CCN(C(=O)c2cccc(-c3cc4nc(C(C#N)C(=O)NCC(=O)NC5CC5)sc4cc3F)c2)CC1 (centres unmarked) [Example 29]
pIC50: 9.00

COMPOUND: N#CC(C(=O)NCC(=O)NC1CC1)c1nc2ncc(-c3ccc(C(N)=O)cc3)cc2s1 (centres unmarked) [Example 24]
pIC50: 7.51

COMPOUND: N#CC(C(=O)NCC(=O)NC1CC1)c1nc2ccc(-c3ccc(F)nc3)cc2s1 (centres unmarked) [Example 16]
pIC50: 6.76

1: N#CC(C(=O)NCC(=O)NC1CC1)c1nc2ccc(-c3ccc(C(N)=O)cc3)cc2s1 (centres unmarked) [Example 11]
2: CN(C)C(=O)c1cccc(-c2ccc3nc(C(C#N)C(=O)NCC(=O)NC4CC4)sc3c2)c1 (centres unmarked) [Example 2]
**Q:** When 1 and 2 are compared, which has the higher number for pIC50? State the label of the item chosen.
**A:** 1

A: N#CC(C(=O)NCC(=O)NC1CC1)c1nc2cc(-c3cccc(C(N)=O)c3)c(F)cc2s1 (centres unmarked) [Example 26]
B: N#CC(C(=O)NCC(=O)NC1CC1)c1nc2ccc(-c3cccc(C(N)=O)c3)cc2s1 (centres unmarked) [Example 9]
**Q:** Please indicate which entry, A or B , has the lower recorded pIC50 value. State the label of the item chosen.
**A:** B

1: N#CC(C(=O)NCC(=O)NC1CC1)c1nc2ncc(-c3cccc(C(=O)N4CCOCC4)c3)cc2s1 (centres unmarked) [Example 22]
2: CN(C)C(=O)c1ccc(-c2ccc3nc(C(C#N)C(=O)NCC(=O)NC4CC4)sc3c2)cc1F (centres unmarked) [Example 3]
**Q:** When 1 and 2 are compared, which has the higher number for pIC50? State the label of the item chosen.
**A:** 1
(1: 7.66, 2: 6.62)
